tested on: HOP-62; experiment: Growth inhibition of human HOP62 cells incubated for 48 hrs by sulforhodamine B assay; type: functional; settings: HOP-62, 48 h
property name: GI50
Note: a bare number is incomplete; add the unit.

Quote HOP-62 GI50 for entry C=C1C(=O)O[C@@H]2[C@H]3O[C@]3(C)CC/C=C(/COC(=O)c3c[nH]c4ccccc34)CC[C@@H]12 . 0.82 µM

Fill in GI50 for C=C1C(=O)O[C@@H]2[C@H]3O[C@]3(C)CC/C=C(/COC(=O)c3cc4cc(Cl)ccc4[nH]3)CC[C@@H]12 tested with HOP-62. 2.22 µM

State measured GI50 of the molecule CN(C)CC1C(=O)O[C@@H]2[C@H]3O[C@]3(C)CC/C=C(/COC(=O)c3cc4ccccc4[nH]3)CC[C@@H]12.O=C(O)/C=C/C(=O)O (some centres not stated) with HOP-62. 2.2 µM

State the measured GI50 (HOP-62) of C=C1C(=O)O[C@@H]2[C@H]3O[C@]3(C)CC/C=C(/COC(=O)c3cc4ccccc4s3)CC[C@@H]12 1.81 µM

Write down measured GI50 (HOP-62) for this molecule. C=C1C(=O)O[C@@H]2[C@H]3O[C@]3(C)CC/C=C(/COC(=O)/C=C/c3c[nH]c4ccccc34)CC[C@@H]12 0.82 µM

Lab note: HOP-62 assay, enter GI50 for C=C1C(=O)O[C@@H]2C3O[C@]3(C)CC/C=C(\C)CC[C@@H]12 (some centres not stated) here 49 µM

Lab note: HOP-62 assay, enter GI50 for C=C1C(=O)O[C@@H]2[C@H]3O[C@]3(C)CC/C=C(/COC(=O)CCCc3c[nH]c4ccccc34)CC[C@@H]12 here 6.54 µM

###

tested on: HCT-15; experiment: Growth inhibition of human HCT15 cells incubated for 48 hrs by sulforhodamine B assay; assay type: functional; conditions: HCT-15, 48 h
With a cut-off of 500 nM, any GI50 strictly below it is called class 1; any GI50 meeting it or above is called class 0.

Please state whether GI50 is below 500 nM for C=C1C(=O)O[C@@H]2[C@H]3O[C@]3(C)CC/C=C(/COC(=O)c3cc4ccccc4o3)CC[C@@H]12 class 0

For C=C1C(=O)O[C@@H]2[C@H]3O[C@]3(C)CC/C=C(/COC(=O)c3cc4ccccc4s3)CC[C@@H]12 , is the recorded GI50 below the cut-off of 500 nM? class 1

Confirm or reject: GI50 of C=C1C(=O)O[C@@H]2[C@H]3O[C@]3(C)CC/C=C(/COC(=O)c3cc4cc(Cl)ccc4[nH]3)CC[C@@H]12 lies strictly below 500 nM class 0

Is GI50 of C=C1C(=O)O[C@@H]2[C@H]3O[C@]3(C)CC/C=C(/COC(=O)c3cn(C)c4ccccc34)CC[C@@H]12 strictly below 500 nM? class 0

Is the reported GI50 for C=C1C(=O)O[C@@H]2[C@H]3O[C@]3(C)CC/C=C(/COC(=O)/C=C/c3c[nH]c4ccccc34)CC[C@@H]12 strictly below 500 nM? class 1

###

Provide the reported GI50 of each item.
test system: Malme-3M; test: Growth inhibition of human MALME-3M cells incubated for 48 hrs by sulforhodamine B assay; type: functional
Give your result in nM as a bare value.

Given C=C1C(=O)O[C@@H]2[C@H]3O[C@]3(C)CC/C=C(/COC(=O)c3cc4cc(OC)ccc4[nH]3)CC[C@@H]12 , report its GI50 on Malme-3M. 1610

Give reported GI50 for C=C1C(=O)O[C@@H]2[C@H]3O[C@]3(C)CC/C=C(/COC(=O)c3cc4ccccc4o3)CC[C@@H]12 (Malme-3M) 1660

Check Malme-3M data and give GI50 for C=C1C(=O)O[C@@H]2[C@H]3O[C@]3(C)CC/C=C(/COC(=O)CCCc3c[nH]c4ccccc34)CC[C@@H]12 . 1790

Write down measured GI50 (Malme-3M) for this compound. C=C1C(=O)O[C@@H]2C3O[C@]3(C)CC/C=C(\C)CC[C@@H]12 (some centres not stated) 13800

Give Malme-3M GI50 for the following compound: C=C1C(=O)O[C@@H]2[C@H]3O[C@]3(C)CC/C=C(/COC(=O)c3c[nH]c4ccccc34)CC[C@@H]12 320

Recall the reported GI50 of C=C1C(=O)O[C@@H]2[C@H]3O[C@]3(C)CC/C=C(/COC(=O)c3cc4cc(F)ccc4[nH]3)CC[C@@H]12 on Malme-3M and write it down. 1670

Report GI50 on Malme-3M for this entry: CN(C)CC1C(=O)O[C@@H]2[C@H]3O[C@]3(C)CC/C=C(/COC(=O)c3cc4ccccc4[nH]3)CC[C@@H]12.O=C(O)/C=C/C(=O)O (some centres not stated) 2010

###

tested on: NCI-H23; assay: Growth inhibition of human NCI-H23 cells incubated for 48 hrs by sulforhodamine B assay; format: functional; details: NCI-H23, 48 h
property name: GI50 (µM)
Lab book: enter the figure in µM, no units written.

Answer with the recorded GI50 for the compound listed here: C=C1C(=O)O[C@@H]2[C@H]3O[C@]3(C)CC/C=C(/COC(=O)c3cc4ccccc4s3)CC[C@@H]12 1.74

Return value of GI50 for input C=C1C(=O)O[C@@H]2[C@H]3O[C@]3(C)CC/C=C(/COC(=O)c3cc4ccccc4[nH]3)CC[C@@H]12 , no commentary. 1.69

Given C=C1C(=O)O[C@@H]2[C@H]3O[C@]3(C)CC/C=C(/COC(=O)CCCc3c[nH]c4ccccc34)CC[C@@H]12 , respond with its GI50. 1.72

Provide GI50 value for the following compound: C=C1C(=O)O[C@@H]2[C@H]3O[C@]3(C)CC/C=C(/COC(=O)c3cc4cc(F)ccc4[nH]3)CC[C@@H]12 1.9

###

tested on: MDA-MB-468; experiment: Growth inhibition of human MDA-MB-468 cells incubated for 48 hrs by sulforhodamine B assay; assay type: functional; details: MDA-MB-468, 48 h
Lab note - cut at 300 nM for GI50: true (1) if strictly below, false (0) if not.

hey, is GI50 for C=C1C(=O)O[C@@H]2[C@H]3O[C@]3(C)CC/C=C(/COC(=O)/C=C/c3c[nH]c4ccccc34)CC[C@@H]12 lower than 300 nM or not? true (1)

Consider the compound CN(C)CC1C(=O)O[C@@H]2[C@H]3O[C@]3(C)CC/C=C(/COC(=O)c3cc4ccccc4[nH]3)CC[C@@H]12.O=C(O)/C=C/C(=O)O (some centres not stated) . Is its GI50 strictly less than 300 nM? false (0)

Determine if C=C1C(=O)O[C@@H]2[C@H]3O[C@]3(C)CC/C=C(/COC(=O)c3c[nH]c4ccccc34)CC[C@@H]12 shows GI50 strictly lower than 300 nM. true (1)

I wonder whether C=C1C(=O)O[C@@H]2[C@H]3O[C@]3(C)CC/C=C(/COC(=O)c3cc4ccccc4o3)CC[C@@H]12 has GI50 below 300 nM. Can you tell? false (0)

I'd appreciate it if you could check whether C=C1C(=O)O[C@@H]2[C@H]3O[C@]3(C)CC/C=C(/COC(=O)c3cc4ccccc4s3)CC[C@@H]12 has GI50 smaller than 300 nM. false (0)

Please let me know if C=C1C(=O)O[C@@H]2[C@H]3O[C@]3(C)CC/C=C(/COC(=O)c3cc4cc(Cl)ccc4[nH]3)CC[C@@H]12 shows GI50 below 300 nM. false (0)

###

system: HCT-15; experiment: Growth inhibition of human HCT15 cells incubated for 48 hrs by sulforhodamine B assay; format: functional; conditions: HCT-15, 48 h
Values of GI50 strictly less than 300 nM map to Condition met, and values of at least 300 nM map to Condition not met.

Would you kindly verify if GI50 of C=C1C(=O)O[C@@H]2[C@H]3O[C@]3(C)CC/C=C(/COC(=O)c3cc4cc(OC)ccc4[nH]3)CC[C@@H]12 is strictly less than 300 nM? Condition not met

Take the compound C=C1C(=O)O[C@@H]2C3O[C@]3(C)CC/C=C(\C)CC[C@@H]12 (some centres not stated) and say whether its GI50 is less than 300 nM. Condition not met

Lab log: compare recorded GI50 with 300 nM; is it strictly lower for C=C1C(=O)O[C@@H]2[C@H]3O[C@]3(C)CC/C=C(/COC(=O)c3cc4ccccc4[nH]3)CC[C@@H]12 ? Condition met

hey, is GI50 for CN(C)CC1C(=O)O[C@@H]2[C@H]3O[C@]3(C)CC/C=C(/COC(=O)c3cc4ccccc4[nH]3)CC[C@@H]12.O=C(O)/C=C/C(=O)O (some centres not stated) lower than 300 nM or not? Condition met

Here's an entry: C=C1C(=O)O[C@@H]2[C@H]3O[C@]3(C)CC/C=C(/COC(=O)c3cc4cc(F)ccc4[nH]3)CC[C@@H]12 . Is its GI50 below 300 nM? Condition not met

Please determine if C=C1C(=O)O[C@@H]2[C@H]3O[C@]3(C)CC/C=C(/COC(=O)CCCc3c[nH]c4ccccc34)CC[C@@H]12 is below 300 nM in terms of GI50. Condition not met

Take the compound C=C1C(=O)O[C@@H]2[C@H]3O[C@]3(C)CC/C=C(/COC(=O)c3c[nH]c4ccccc34)CC[C@@H]12 and say whether its GI50 is less than 300 nM. Condition met

These data points were gathered from ChEMBL document CHEMBL4138104.
